Tested on: Saccharomyces cerevisiae
Assay: protein stability index of tFT-peptide fusion (C-terminal peptide) (PSI (0-1 scale)); higher = more stable (slower turnover)
Settings: genetic background: das1 deletion; temperature: 30 C
Recorded protein stability index values for a group of sequences are listed next.

Worked set:
PLFADYLNKNLN [KTI12 C-terminal 12 aa] ... 0.716
LERIVGLLLMDM [MHF2 C-terminal 12 aa] ... 0.668
QFFLAPKFNDEE [POL30 C-terminal 12 aa] ... 0.712

Prompt: What value of measured protein stability index is listed for MKRSASYTGAKV [TPS2 C-terminal 12 aa] ?
Completion: 0.7

Prompt: Also need GAGVVAAAAMLL [TIR1 C-terminal 12 aa] , thanks.
Completion: 0.718

Prompt: Also need RDNPILLEDEDP [ULP2 C-terminal 12 aa] , thanks.
Completion: 0.708
